Sourced from PubChem BioAssay (NCATS)

- Assay method text: qHTS profiling of the MIPE4 collection as inhibitors of Plasmodium falciparum (HB3) proliferation (AID 743347);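 note: plate controls were DMSO vehicle wells for no effect and artemisinin wells for full effect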
- Experimental conditions: P. falciparum HB3 in erythrocytes, SYBR Green DNA, 72 h; at 28.5 µM (top of the series)
Endpoint name: growth, % of control

Recorded growth, % of control, per entry:
O=c1[nH]c2ccccc2n1C1CCN(Cc2ccc(-c3[nH]c4cc5ncnc5cc4nc3-c3ccccc3)cc2)CC1 | 4.58%
C=C1C[C@H]2[C@H]3CCC(=O)[C@@]3(C)CC[C@@H]2[C@@]2(C)C=CC(=O)C=C12 | 29%
CN1CCN(c2ccc([N+](=O)[O-])c3no[n+]([O-])c23)CC1 | 99.7%
Cc1nc(-c2ccc(-c3ccc(C(=O)N4CCc5cc6c(cc54)C4(CCN(C)CC4)CO6)cc3)c(C)c2)no1 | 43.5%
CCN1C[C@]2(OC(=O)c3ccccc3NC(C)=O)CC[C@H](OC)[C@@]34[C@H]5CC6[C@@H](OC)C[C@](O)(C(C[C@@H]23)[C@@H]14)[C@@]5(O)[C@@H]6OC | 85.8%
Cc1c(N)nc([C@H](CC(N)=O)NC[C@@H](N)C(N)=O)nc1C(=O)N[C@H](C(=O)N[C@@H](C)[C@H](O)[C@@H](C)C(=O)N[C@@H](C(=O)NCCc1nc(-c2nc(C(=O)NCCC[S+](C)C)cs2)cs1)[C@@H](C)O)C(O[C@H]1O[C@H](CO)[C@H](O)[C@@H](O)[C@@H]1O[C@H]1O[C@H](CO)[C@@H](O)[C@H](OC(N)=O)[C@H]1O)c1cnc[nH]1 (stereo partly drawn) | 68.4%
c1cc2c(cc1[C@H]1OC[C@H]3[C@H]1CO[C@H]3c1ccc3c(c1)OCO3)OCO2 | 107%

Proceeding to the next compound to report its growth, % of control.
Q. # lookup: growth, % of control of "C[C@H]([C@H](O)CCC(C)(C)O)[C@H]1CC[C@@]2(O)C3=CC(=O)[C@@H]4C[C@@H](O)[C@@H](O)C[C@]4(C)[C@@H]3CC[C@]12C"
A. 59%
